Would you mind telling me the reported TGI of each entry?
# Tested on: NCI/ADR-RES ovarian
# test.method.notes: NCI tumour cell line growth inhibition, 48 h
Where a SMILES comes first, the peptide text is derived from it. The star is where a group is joined. Fmoc = O=C(OCC1c2ccccc2-c2ccccc21)*; Boc = CC(C)(C)OC(=O)*

# molecule, TGI
measured = [
    ("NC(=O)N/N=C/c1ccccc1O", "> 100 µM"),
    ("COc1cc(N(CCC#N)CCC#N)ccc1/C(N=Nc1cccc(C)c1)=N\\NC(=O)c1ccc(C)cc1", "> 100 µM"),
]

Lab note: each molecule below needs its TGI filled in.
1. CC(C)(C)OC(=O)NCCCCC(NC(=O)C(Cc1c[nH]c2ccccc12)NC(=O)OCC1c2ccccc2-c2ccccc21)C(=O)O (centres undefined) (Fmoc-Trp-Lys(Boc)-OH; configuration not given here)
2. O=C1NC(=O)C2(CCc3ccc(N(CCCl)CCCl)cc32)N1 (centres undefined)

["> 100 µM", "40.6 µM"]

----------
Would you mind telling me the reported TGI of each entry?
# Test system: MDA-N
# test.method.notes: NCI tumour cell line growth inhibition, 48 h

Lab note: each compound below needs its TGI filled in.
1. Cc1cccc2c(=O)c3c(O)cc4c(c3n(C)c12)C=CC(C)(C)O4
2. CC1(C)O[C@@H](CP(c2ccc3ccccc3c2)c2ccc3ccccc3c2)[C@H](CP(c2ccc3ccccc3c2)c2ccc3ccccc3c2)O1
3. COc1cc(C2S/C(=C/c3ccccc3)C(=O)N2c2ccccn2)cc(OC)c1OC (stereo not drawn)

["> 100 µM", "> 100 µM", "34.4 µM"]

Lab note: each compound below needs its TGI filled in.
1. OCC1(CNc2cc(Cl)ncn2)CCC1
2. Cc1ccc(S(=O)(=O)N/N=C2\CC3C4CCC3C2C4)cc1 (stereo not drawn)
3. CC(=O)Oc1ccc2c3c1[C@@H]1O[C@@H]1c1cccc(c1-3)[C@@H]1O[C@H]21

1. > 100 µM
2. > 100 µM
3. 3.32 µM

----------
Would you mind telling me the reported GI50 of each entry?
# Tested on: COLO 205 colon
# test.method.notes: NCI tumour cell line growth inhibition, 48 h

# compound, reported.value
records = [
    ("CCCC(CCC)C(=O)O", "> 100 µM"),
]

Lab note: each compound below needs its GI50 filled in.
1. COC(=O)C1=C(O)C(C(=O)OC)[C@@]2(O)[C@@H](C(=O)OC)C(c3ccccc3Cl)C[C@@H]1[C@@H]2C(=O)OC (stereo partly specified)
2. CCC(=O)Oc1ccc(/C=N/NC(N)=S)nc1
3. O=S1(=O)C=C(c2ccccc2)C(c2ccccc2)=C1
4. COc1ccc2c(c1)O/C(=C\c1ccc([N+](=O)[O-])s1)C2=O

1: 14.1 µM; 2: 27.5 µM; 3: 1.77 µM; 4: 1.88 µM

----------
Would you mind telling me the reported TGI of each entry?
# Test system: EKVX NSCLC
# test.method.notes: NCI tumour cell line growth inhibition, 48 h

Some entries whose results are on file:
# compound, reported.value
records = [
    ("CC(=O)Nc1ccc(OCC(O)CO)cc1 (stereo unspecified)", "> 100 µM"),
    ("N#CC(CC(=O)O)=C(c1ccccc1)c1ccccc1", "> 100 µM"),
    ("N#CC12CC3(CCC1CCC1(C2)OCCO1)OCCO3 (stereo unspecified)", "> 100 µM"),
    ("COn1cc(C(=O)N=C(SC)SC)c2ccccc21", "77.5 µM"),
    ("O=C(OCc1ccccc1)c1ccccc1-c1c2ccc(=O)cc-2oc2cc(OCc3ccccc3)ccc12", "> 100 µM"),
]

Please find the next compound below.
Field TGI (entry `CCCCCC/C(CC(=O)CCC(=O)NCCc1ccccc1)=N\NC(=O)c1ccc2ccccc2c1O` ) reads > 100 µM

----------
# Test system: ACHN renal
# test.method.notes: NCI tumour cell line growth inhibition, 48 h
quantity.kind: GI50

Some entries whose results are on file:
# compound, quantity.kind, reported.value
measured = [
    ("COc1ccc(-c2c(C#N)cnc(N)c2-c2nc3cc(C)c(C)cc3[nH]2)cc1", "GI50", "39.8 µM"),
    ("C[C@H](c1ccc(Cl)cc1[N+](=O)[O-])N1C(=O)c2cc(I)ccc2NC(=O)[C@H]1c1ccc(Cl)cc1", "GI50", "> 100 µM"),
    ("COc1ccc(-c2cc3c(N)ncnc3o2)cc1", "GI50", "> 25 µM"),
    ("O=C(N/N=C/c1cccc(O)c1)c1ccc(C(F)(F)F)nc1Nc1cccc(C(F)(F)F)c1", "GI50", "2.09 µM"),
]

Lab note: each compound below needs its GI50 filled in.
1. CN1C(=O)C(C)(C)Oc2c(-c3cn(C)c(=O)c4[nH]ccc34)cc(S(C)(=O)=O)cc21
2. CCCCCCCCCCCCCCCC(N)c1ccccc1 (configuration not stated)
3. COn1cc(C(=O)N=C(SC)SC)c2ccccc21

1: 1.39 µM; 2: 1.79 µM; 3: 22 µM

----------
# Tested on: SF-295 CNS
# test.method.notes: NCI tumour cell line growth inhibition, 48 h
quantity.kind: TGI (µM)
Give bare numbers, in µM.

Lab note: each compound below needs its TGI filled in.
1. CCOC(=O)C(C(=O)OCC)C(NC(=O)Nc1cc(C(F)(F)F)ccc1OC)(C(F)(F)F)C(F)(F)F
2. CCN(CC)c1ccc(N=C2C=CC(=C(C#N)C#N)c3ccccc32)c(C)c1

1. 84.8
2. 5.66

----------
# Test system: SW-620 colon
# test.method.notes: NCI tumour cell line growth inhibition, 48 h
Would you mind telling me the reported TGI of each entry?

Some entries whose results are on file:
# compound, target.under.test, reported.value
rows = [
    ("C#Cc1ccccc1N1C(=O)C=CC1=O", "SW-620 colon", "> 100 µM"),
    ("COc1ccc(/C=C2\\CC3C4CC=C5C[C@@H](O)CC[C@]5(C)C4CC[C@]3(C)C2=O)cc1OC (stereo partly specified)", "SW-620 colon", "> 100 µM"),
    ("O=C1OC(=O)C2C1C1C(c3ccccc3)=C(c3ccccc3)C2(O)C2C(=O)OC(=O)C12 (stereo unspecified)", "SW-620 colon", "> 100 µM"),
    ("C[C@H](CCCOS(C)(=O)=O)[C@H]1CC[C@H]2[C@@H]3CC[C@@H]4C[C@H](OS(C)(=O)=O)CC[C@]4(C)[C@H]3CC[C@]12C", "SW-620 colon", "> 2500 µM"),
    ("CC(C)C(=O)CP(=O)(O)O", "SW-620 colon", "> 100 µM"),
    ("CC(=O)Nc1ccc(OCC(O)CO)cc1 (stereo unspecified)", "SW-620 colon", "21.6 µM"),
]

Lab note: each compound below needs its TGI filled in.
1. Cc1ccc(NC(=O)CC2C(=O)Nc3ccccc3S2(=O)=O)cc1C (stereo unspecified)
2. CCCCn1c2c(n(CCCC)c1=[Se])-c1c(n(CCCC)c(=[Se])n1CCCC)S[Se][Se]S2
3. Nc1nc2c(ncn2CC(CO)CC(c2ccccc2)P(=O)(O)O)c(=O)[nH]1 (stereo unspecified)

1. > 100 µM
2. 19.6 µM
3. > 100 µM

Lab note: each compound below needs its TGI filled in.
1. COC(=O)C(C(=O)C(=O)Nc1ccc(N)cc1[N+](=O)[O-])c1nc2ccc(Cl)cc2[nH]c1=O (stereo unspecified)
2. Cc1cccc(/C=C2\CCCCCC2=O)c1

1. > 100 µM
2. > 100 µM

----------
# Tested on: HCT-116 colon
# test.method.notes: NCI tumour cell line growth inhibition, 48 h
Would you mind telling me the reported TGI of each entry?

Some entries whose results are on file:
# compound, reported.value
rows = [
    ("CC1CCC2[C@@H](C)COC3O[C@]4(C)CCC1C32OO4 (stereo partly specified)", "> 100 µM"),
    ("CCC12C=CCN3CCC4(C(=C(C(=O)OC)C1)Nc1ccccc14)[C@H]32 (stereo partly specified)", "> 100 µM"),
    ("O=C(CSCC(=O)N/N=C/c1ccncc1)N/N=C/c1ccncc1", "> 100 µM"),
]

Lab note: each compound below needs its TGI filled in.
1. COc1cc2c3c4c1OCc1c5c(cc(c1-4)CC3[N+](C)(C)CC2)OCO5 (stereo unspecified)
2. NCCNc1ncnc2ccc(Cl)cc12
3. N#CC1C(=O)NC(=O)C(C#N)C1c1ccc(Cl)c(Cl)c1 (stereo unspecified)
4. Cc1ccc(C)c(C(=N)c2ccccc2Cc2ccccc2)c1
5. C1COCCOP2(N3CC3)=NP(N3CC3)(=NP(N3CC3)(N3CC3)=N2)OCCOCCO1 (stereo unspecified)
6. CC(=O)Oc1ccc2c3c1[C@@H]1O[C@@H]1c1cccc(c1-3)[C@@H]1O[C@H]21

1. > 100 µM
2. > 100 µM
3. 29.7 µM
4. 41.5 µM
5. > 100 µM
6. 2.87 µM

Lab note: each compound below needs its TGI filled in.
1. CC(C)C(=O)CP(=O)(O)O
2. N#CC12CC3(CCC1CCC1(C2)OCCO1)OCCO3 (stereo unspecified)

["> 100 µM", "> 100 µM"]
